tested on: SNB-19 CNS; assay: NCI tumour cell line growth inhibition, 48 h
Recorded TGI values for a group of molecules are listed next.

INSERT INTO assay_data (molecule, readout, experimentalresult) VALUES
  ('c1cc(-c2sc(-c3ccncc3)c(-c3ccncc3)c2-c2ccncc2)ccn1', 'TGI', '55.9 µM'),
  ('COc1cccc(-c2cc(=O)c3cc(C)cnc3[nH]2)c1', 'TGI', '> 100 µM'),
  ('COc1cccc(/C=C/C2=NN(c3cccc(S(=O)(=O)O)c3)C3(C2)SCC(=O)N3c2nc3ccccc3s2)c1 (configuration not stated)', 'TGI', '> 100 µM'),
  ('NNC(=O)c1ccccc1NC(=O)/C(=C/c1ccccc1)NC(=O)c1ccccc1', 'TGI', '> 100 µM'),
  ('O=C1C=C(c2cc(Br)c(O)c(Br)c2)/C(=C/c2cc(Br)c(O)c(Br)c2)O1', 'TGI', '> 75 µM'),
  ('COc1cccc2c(=O)c3c(sc12)c(NCCCN)nc1ccccc13', 'TGI', '3.04 µM');

Please turn your attention to the following entry.
# input For CC(C)n1c(=O)c2nn3c(=O)n(C(C)C)c(=O)c3nn2c1=O , what is its reported TGI?
# output > 100 µM
